# Test system: Rice Blast
# TEST_CONTEXT: in vivo
Reported Areal rate of disease spot (%) After 60 days values follow for various compounds
# unit: % | format: bare number

Answered cases to consult:
CC(C)NC(=O)c1c(I)cccc1C(=O)Nc1ccc(C(F)(F)F)cc1Cl = 8.2
Cc1cc(C(F)(F)C(F)(F)F)ccc1NC(=O)c1cccc(I)c1C(=O)NC(C)C = 8.5
Cc1cc(C(F)(F)C(F)(F)F)ccc1NC(=O)c1cccc(Cl)c1C(=O)NC(C)C = 8.3

Prompt: Reported Areal rate of disease spot (%) After 60 days for Rice Blast, given Cc1cc(C(F)(F)F)ccc1NC(=O)c1cccc(I)c1C(=O)NC(C)C ?
Response: 7.9

Prompt: Give the reported Areal rate of disease spot (%) After 60 days for Cc1cc(C(F)(F)C(F)(F)C(F)(F)F)ccc1NC(=O)c1cccc(I)c1C(=O)NC(C)C (system: Rice Blast).
Response: 8.3

Prompt: I'm curious: which Areal rate of disease spot (%) After 60 days was measured for Cc1cc(OC(F)(F)F)ccc1NC(=O)c1cccc(Cl)c1C(=O)NC(C)C tested on Rice Blast?
Response: 8.1
